tested on: Mycobacterium tuberculosis; test: Antimycobacterial activity against INH, RIF, rifabutin, streptomycin-resistant Mycobacterium tuberculosis 9449/2006 after 21 days by microdilution method; format: functional; settings: 9449/2006, 504 h
The entries below come with measured MIC values attached.
measure: MIC

[
  {
    "compound-smiles": "Cc1ccc(C(=O)Oc2ccc(Cl)cc2C(=O)Nc2ccc(C(F)(F)F)cc2)cc1",
    "tgt": "Mycobacterium tuberculosis",
    "measure": "MIC",
    "result": "1 µM"
  },
  {
    "compound-smiles": "O=C(Oc1ccc(Cl)cc1C(=O)Nc1ccc(Cl)c(Cl)c1)c1ccc(C(F)(F)F)cc1",
    "tgt": "Mycobacterium tuberculosis",
    "measure": "MIC",
    "result": "2 µM"
  },
  {
    "compound-smiles": "O=C(Oc1ccc(Cl)cc1C(=O)Nc1ccc(C(F)(F)F)cc1)c1ccc(C(F)(F)F)cc1",
    "tgt": "Mycobacterium tuberculosis",
    "measure": "MIC",
    "result": "1 µM"
  },
  {
    "compound-smiles": "Cc1ccc(C(=O)Oc2ccc(Cl)cc2C(=O)Nc2ccc(Cl)c(Cl)c2)cc1",
    "tgt": "Mycobacterium tuberculosis",
    "measure": "MIC",
    "result": "1 µM"
  },
  {
    "compound-smiles": "O=C(Oc1ccc(Br)cc1C(=O)Nc1ccc(C(F)(F)F)cc1)c1ccc([N+](=O)[O-])cc1",
    "tgt": "Mycobacterium tuberculosis",
    "measure": "MIC",
    "result": "0.5 µM"
  },
  {
    "compound-smiles": "O=C(Oc1ccc(Cl)cc1C(=O)Nc1ccc(C(F)(F)F)cc1)c1ccccc1",
    "tgt": "Mycobacterium tuberculosis",
    "measure": "MIC",
    "result": "0.5 µM"
  },
  {
    "compound-smiles": "O=C(Oc1ccc(Br)cc1C(=O)Nc1ccc(C(F)(F)F)cc1)c1ccc(C(F)(F)F)cc1",
    "tgt": "Mycobacterium tuberculosis",
    "measure": "MIC",
    "result": "1 µM"
  },
  {
    "compound-smiles": "O=C(Oc1ccc(Br)cc1C(=O)Nc1ccc(C(F)(F)F)cc1)c1ccccc1",
    "tgt": "Mycobacterium tuberculosis",
    "measure": "MIC",
    "result": "1 µM"
  },
  {
    "compound-smiles": "O=C(Oc1ccc(Cl)cc1C(=O)Nc1ccc(Cl)c(Cl)c1)c1ccccc1",
    "tgt": "Mycobacterium tuberculosis",
    "measure": "MIC",
    "result": "1 µM"
  },
  {
    "compound-smiles": "O=C(Oc1ccc(Cl)cc1C(=O)Nc1ccc(Cl)c(Cl)c1)c1ccc(Br)cc1",
    "tgt": "Mycobacterium tuberculosis",
    "measure": "MIC",
    "result": "0.5 µM"
  }
]
